# pIC50 per entry
tested on: HepG2; test: Antiproliferative activity against human HepG2 cells incubated for 72 hrs by MTT assay; assay type: functional, cell-based; details: HepG2, 72 h
Note on units: pIC50 is unitless, being -log10 of a concentration expressed in mol/L.

// solved cases for pIC50 follow
[
  {
    "smiles.notation": "COc1ccccc1CCc1cc(OC)c(O)c(OC)c1",
    "pIC50": 5.61
  },
  {
    "smiles.notation": "COc1cc(CCc2ccc(Cl)cc2Cl)cc(OC)c1O",
    "pIC50": 5.17
  },
  {
    "smiles.notation": "COc1cc(CCc2ccc([N+](=O)[O-])cc2)cc(OC)c1O",
    "pIC50": 4.96
  },
  {
    "smiles.notation": "COc1ccc(CCc2ccc(OC)c(OC)c2)cc1O",
    "pIC50": 5.39
  },
  {
    "smiles.notation": "COc1cc(CCc2ccccc2)cc(OC)c1O",
    "pIC50": 5.11
  },
  {
    "smiles.notation": "COc1cc(CCc2cccc(Cl)c2Cl)cc(OC)c1O",
    "pIC50": 5.32
  },
  {
    "smiles.notation": "COc1cc(CCc2ccccc2Cl)cc(OC)c1O",
    "pIC50": 5.66
  },
  {
    "smiles.notation": "COc1ccc(CCc2ccccc2Cl)cc1OC",
    "pIC50": 5.31
  }
]

input: State, in one line, measured pIC50 of `CC(C)=CCC[C@]1(C)C=Cc2c(O)c3c(c(CC=C(C)C)c2O1)O[C@]12C(=C[C@@H]4C[C@H]1C(C)(C)O[C@@]2(C/C=C(/C)C(=O)O)C4=O)C3=O`
output: 5.63

input: Report pIC50, nothing else, for this compound: `COc1cc(CCc2ccncc2)cc(OC)c1O`
output: 5.66

input: // Input: `COc1cc(CCc2ccc(Cl)cc2)cc(OC)c1O` . Output its pIC50 only.
output: 5.06

###

tested on: HepG2; test: Antiproliferative activity against human HepG2 cells incubated for 72 hrs by MTT assay; type: functional, cell-based; details: HepG2, 72 h
Listing of recorded pIC50 by entry.
Value format note: pIC50 is -log10 of concentration (mol/L); just state the number.

Answered cases to consult:
[
  {
    "molecule": "COc1ccc(CCc2ccccc2)cc1OC",
    "assay.system": "HepG2",
    "pIC50": 5.68
  },
  {
    "molecule": "COc1cc(CCc2cc(OC)c(O)c(OC)c2)ccc1O [MOSCATILIN]",
    "assay.system": "HepG2",
    "pIC50": 5.42
  },
  {
    "molecule": "COc1cc(CCc2ccc(Cl)c(Cl)c2)cc(OC)c1O",
    "assay.system": "HepG2",
    "pIC50": 4.79
  },
  {
    "molecule": "COc1cc(CCc2ccccn2)cc(OC)c1O",
    "assay.system": "HepG2",
    "pIC50": 5.32
  }
]

input: Report measured pIC50; entry is `COc1cc(CCc2ccc(Br)cc2)cc(OC)c1O`
output: 5.07

input: Dear colleague, please send me the reported pIC50 for `COc1cc(CCc2ccc(F)cc2)cc(OC)c1O` when you can.
output: 5.26

input: Annotate the molecule `COc1ccc(CCc2ccc([N+](=O)[O-])cc2)cc1OC` with its measured pIC50.
output: 5.80

input: Name the recorded pIC50 of the molecule listed here: `COc1ccc(CCc2ccc(Cl)cc2)cc1OC`
output: 6.13

input: Give recorded pIC50. `COc1cc(CCc2ccc(OC)c(OC)c2)ccc1O`
output: 5.64

input: Return pIC50 for the following molecule: `COc1ccc(CCc2ccccn2)cc1OC`
output: 4.86

input: For the molecule `COc1cc(CCc2cccc(F)c2)cc(OC)c1O` , report pIC50.
output: 4.91

input: Return value of pIC50 for input `COc1cc(CCc2ccccc2F)cc(OC)c1O` , no commentary.
output: 5.99

Values from ChEMBL document CHEMBL4390700
